Entries and their pIC50
Tested on: MFH-ino;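 note: growth inhibition of human MFH-ino cells, read out by a cell viability assay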
measurement.protocol: cells
Type: functional, cell-based, Homo sapiens
settings: Homo sapiens, MFH-ino
Description: SANGER: Inhibition of human MFH-ino cell growth in a cell viability assay.
Remember, pIC50 is on a log scale: it is -log10 of the molar concentration.

Worked cases, pIC50 given:
{"columns": ["substance.smiles", "experimental.readout", "reading"],
 "data": [
  ["C/C(=C\\c1csc(C)n1)[C@@H]1C[C@@H]2O[C@]2(C)CCC[C@H](C)[C@H](O)[C@@H](C)C(=O)C(C)(C)[C@@H](O)CC(=O)O1", "pIC50", 9.05],
  ["CCCCCCCCCCCC1=C(O)C(=O)C=C(O)C1=O", "pIC50", 5.25]
]}

// next item, pIC50 requested
Please look up its pIC50: CC(C)C[C@H](NC(=O)[C@H](Cc1ccccc1)NC(=O)c1cnccn1)B(O)O
9.35

###

System: RMG-I;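 note: growth inhibition of human RMG-I cells, read out with a cell viability assay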
measurement.protocol: cells
Type: functional, cell-based
settings: Homo sapiens
Description: SANGER: Inhibition of human RMG-I cell growth in a cell viability assay.
Entries and their IC50

Please look up its IC50: NC(=O)c1ccc(N(C(N)=O)c2c(F)cccc2F)nc1-c1ccc(F)cc1F
> 2 µM

###

Tested on: RCC10RGB
measurement.protocol: cells
Format: functional, cell-based, Homo sapiens
settings: Homo sapiens, RCC10RGB
Description: SANGER: Inhibition of human RCC10RGB cell growth in a cell viability assay.
pIC50: −log10 of the molar value.
Entries and their pIC50

{"columns": ["compound", "pIC50"],
 "data": [
  ["NC1(c2ccc(-c3nc4ccn5c(=O)[nH]nc5c4cc3-c3ccccc3)cc2)CCC1", "< 5.40"]
]}

Please look up its pIC50: O=C1NC(=O)c2c1c(-c1ccccc1Cl)cc1[nH]c3ccc(O)cc3c21
< 5.70

###

Entries and their IC50
Test system: L-428
measurement.protocol: cells
Type: functional, cell-based, Homo sapiens
settings: Homo sapiens, L-428
Description: SANGER: Inhibition of human L-428 cell growth in a cell viability assay.

{"columns": ["compound", "IC50"],
 "data": [
  ["OC[C@H](Cc1ccccc1)Nc1nc(Oc2ccc3c(c2)CCC3)nc2c1ncn2Cc1ccc(-c2ccccc2)cc1", "> 10.2 µM"],
  ["CC(C)C[C@H](NC(=O)[C@H](Cc1ccccc1)NC(=O)c1cnccn1)B(O)O [BORTEZOMIB]", "> 0.02 µM"],
  ["CC1=C(/C=C/C(C)=C/C=C/C(C)=C/C(=O)O)C(C)(C)CCC1 [TRETINOIN]", "> 10 µM"]
]}

// next item, IC50 requested
Please look up its IC50: C[C@@H](Oc1cc(-c2cnn(C3CCNCC3)c2)cnc1N)c1c(Cl)ccc(F)c1Cl [CRIZOTINIB]
> 2 µM

###

Entries and their IC50
Tested on: SK-OV-3
measurement.protocol: cells
Type: functional, cell-based
settings: Homo sapiens
Description: SANGER: Inhibition of human SK-OV-3 cell growth in a cell viability assay.

Worked cases, IC50 given:
{"columns": ["substance.smiles", "reading"],
 "data": [
  ["CCCCCCCCCCCC1=C(O)C(=O)C=C(O)C1=O", "10.9 µM"],
  ["Cc1ccc(-n2nc(C(C)(C)C)cc2NC(=O)Nc2ccc(OCCN3CCOCC3)c3ccccc23)cc1", "> 10 µM"],
  ["NC(=O)Nc1cc(-c2cccc(F)c2)sc1C(=O)N[C@H]1CCCNC1", "> 2 µM"],
  ["COc1ccc(-c2cc3nccn3c(Nc3ncccc3C(N)=O)n2)cc1OC", "> 8 µM"]
]}

Please look up its IC50: O=S(=O)(O)c1ccc2cc(/N=N/c3cc(S(=O)(=O)O)c4cccnc4c3O)ccc2c1
> 16 µM
